Biological target: MCR-4 (Homo sapiens)
Construct: expressed in transfected cells; host or cells: HEK 293
Sequence (P32245 whole entry): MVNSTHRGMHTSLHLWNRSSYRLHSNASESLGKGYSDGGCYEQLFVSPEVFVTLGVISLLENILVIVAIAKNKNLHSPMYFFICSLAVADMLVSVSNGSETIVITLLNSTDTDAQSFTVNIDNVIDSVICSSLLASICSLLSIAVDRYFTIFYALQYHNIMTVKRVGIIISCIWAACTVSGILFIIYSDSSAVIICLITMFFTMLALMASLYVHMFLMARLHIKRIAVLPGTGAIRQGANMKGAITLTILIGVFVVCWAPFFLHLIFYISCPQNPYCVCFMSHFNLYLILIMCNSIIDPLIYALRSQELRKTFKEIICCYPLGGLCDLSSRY
Test: Melanocortin receptor binding assay, competition with 125I-HP 467, HEK 293 cells expressing hMCR-4
Conditions: competition with 125I-HP 467, HEK 293 cells expressing MCR-4; read-out: MC-4 IC50
observed_property: IC50 (µM)

# count of solved cases: 4
NCC(N)CCCCN1Cc2ccccc2C(CNCCc2ccccc2)C1c1ccc(-c2ccccc2)cc1 (stereo not drawn) ... 1.22
CNC(CNC(CN)CCCCN1Cc2ccccc2C(CN)C1c1ccc(-c2ccccc2)cc1)Cc1ccccc1 (stereo not drawn) ... 1.33
CCCCNc1ccc(C2C(CNC3CCCCC3)c3ccccc3CN2CCCCC(CN)NCCCC)cc1 (stereo not drawn) ... 1.5
CCNc1ccc(C2C(CNCCc3ccccc3)c3ccccc3CN2CCCCC(CN)NCCc2ccccc2)cc1 (stereo not drawn) ... 1

[P] CCCCNC(CN)CCCN1Cc2ccccc2C(CN)C1c1ccc(-c2ccccc2)cc1 (stereo not drawn)
[Q] CCCCNc1ccc(C2C(CNCCc3ccccc3)c3ccccc3CN2CCCCC(CN)NCc2ccccc2)cc1 (stereo not drawn)
In: Of the two listed items, P and Q , which carries the larger IC50 figure? Respond using the label that marks the chosen record.
Out: Q

###

Biological target: MCR-1 (Homo sapiens)
Construct: expressed in transfected cells; host or cells: HEK 293
Sequence (Q01726 whole entry): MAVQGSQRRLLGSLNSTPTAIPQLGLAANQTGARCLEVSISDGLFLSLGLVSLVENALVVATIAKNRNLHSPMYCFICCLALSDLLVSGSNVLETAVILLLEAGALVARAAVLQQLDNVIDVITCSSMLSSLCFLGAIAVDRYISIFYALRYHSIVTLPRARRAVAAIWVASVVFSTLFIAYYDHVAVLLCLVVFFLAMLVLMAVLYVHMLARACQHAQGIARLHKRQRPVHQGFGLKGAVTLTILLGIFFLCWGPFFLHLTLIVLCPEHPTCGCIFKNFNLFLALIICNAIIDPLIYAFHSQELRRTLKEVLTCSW
Assay: Melanocortin receptor binding assay, competition with 125I-HP 467, HEK 293 cells expressing hMCR-1
Conditions: inhibition of binding of 125I-HP 467, HEK 293 cells expressing MCR-1; TRG 2414 library; read-out: MC-1 IC50
observed_property: IC50 (nM)

COc1cccc(CNCC2c3ccccc3CN(CCCCC(N)CN)C2c2ccc(Oc3ccccc3)cc2)c1 (centres unmarked) ... 1210
COc1ccc(CNCC2c3ccccc3CN(CCCCC(N)CN)C2c2cc(C(F)(F)F)cc(C(F)(F)F)c2)cc1 (centres unmarked) ... 10500
NCC(CCCCN1Cc2ccccc2C(CNC2CCCCC2)C1c1ccc(Cl)cc1Cl)NCCc1ccccc1 (centres unmarked) ... 1920

[A] NCC(CCCCN1Cc2ccccc2C(CNC2CCCCC2)C1c1ccc(Cl)cc1Cl)NCc1ccccc1 (mixture of isomers)
[B] NCC(N)CCCCN1Cc2ccccc2C(CNCc2ccccc2C(F)(F)F)C1c1cc(C(F)(F)F)cc(C(F)(F)F)c1 (centres unmarked)
In: Among A and B , whose measured IC50 is the smaller figure? Field: selected label. Fill in the label of the entry you choose.
Out: A

###

Target: MCR-1 (Homo sapiens)
Construct: expressed in transfected cells; host or cells: HEK 293
Test: Melanocortin receptor binding assay, competition with 125I-HP 467, HEK 293 cells expressing hMCR-1
Conditions: competition with 125I-HP 467, HEK 293 cells expressing MCR-1; read-out: MC-1 IC50
pIC50: −log10 of the molar value.
observed_property: pIC50

Example molecules with recorded pIC50:
CNC(CN)CCCCN1Cc2ccccc2C(CNC2CCCCC2)C1c1ccc(NCCc2ccc(Cl)c(Cl)c2)cc1 (stereo not drawn) [TRG 2409-23] ... 5.32
CCCCNc1ccc(C2C(CNCCc3ccccc3)c3ccccc3CN2CCCCC(CN)NCc2ccccc2)cc1 (stereo not drawn) [TRG 2411-80] ... 6.77
CNC(CN)CCCCN1Cc2ccccc2C(CNC2CCCCC2)C1c1ccc(NCc2ccc(OC)cc2)cc1 (stereo not drawn) [TRG 2409-18] ... 5.12

[1] CCNc1ccc(C2C(CNC3CCCCC3)c3ccccc3CN2CCCCC(CN)NCC)cc1 (stereo not drawn) [TRG 2411-49]
[2] CCNc1ccc(C2C(CNCCc3ccccc3)c3ccccc3CN2CCCCC(N)CN)cc1 (stereo not drawn) [TRG 2411-36]
In: Given the listed records, identify the one among 1 and 2 with higher pIC50. // caller expects the label of the chosen entry
Out: 2
(2: 6.89, 1: 6.66)

// provenance: patent US6608082B1
